The measured values listed here are drawn from ChEMBL document CHEMBL6134844.

test: Selectivity index, ratio of CC50 for Macaca mulatta hepatocytes to IC50 for antiplasmodial activity against schizont Plasmodium cynomolgi B strain infected in Macaca mulatta hepatocytes incubated with sporozoite containing salivary gland homogenate obtained from dissected Anopheles dirus mosquitoes (infected with Plasmodium cynomolgi B strain) treatment started on day 4 post infection and continued daily for 4 days into fresh changed media until day 8 assessed as Liver stage (LS) activity by measuring prophylactic mode by immunofluorescent staining analysis; format: toxicity, cell-based; settings: rhesus monkey, read-out: Selectivity Index
outcome-measure: selectivity ratio at 96 h
Form: value (number only, do not type unit).

O=c1c2ccc(OCc3cccc(OC(F)(F)F)c3)cc2[nH]c2cc(Cl)cc(F)c12 : 165
CC(C)(C)OC(=O)N1CCC(Oc2ccc3c(=O)c4c(F)cc(Cl)cc4[nH]c3c2)CC1 : 43.4
CC(C)(C)OC(=O)N1CCC(Oc2ccc3c(=O)c4c(F)cc(Cl)cc4[nH]c3c2)C1 (configuration not stated) : 176

// O=c1c2ccccc2[nH]c2cc(Oc3ccc(OC(F)(F)F)cc3)ccc12 : selectivity ratio at 96 h value = 5.85

Memo: CO[C@@H]1[C@@H](OC)[C@H](C)[C@@](O)(CC(=O)O)O[C@H]1[C@H](C)[C@H]1O[C@@]2(CC[C@@](C)([C@H]3CC[C@@](C)([C@@H]4O[C@@H]([C@H]5O[C@](C)(O)[C@H](C)C[C@@H]5C)C[C@@H]4O[C@@H]4C[C@H](OC)[C@@H](OC)[C@H](C)O4)O3)O2)C[C@H](O)[C@H]1C , reported selectivity ratio at 96 h: 78.7

Sure, the documented selectivity ratio at 96 h for O=c1c2c([nH]c3cc(Oc4cccc(OC(F)(F)F)c4)ccc13)CCCC2 is 16.8

###

test: Selectivity index, ratio of CC50 for Macaca mulatta hepatocytes to IC50 for antiplasmodial activity against schizont Plasmodium cynomolgi B strain infected in Macaca mulatta hepatocytes incubated with sporozoite containing salivary gland homogenate obtained from dissected Anopheles dirus mosquitoes (infected with Plasmodium cynomolgi B strain) treatment started on day 4 post infection and continued daily for 4 days into fresh changed media until day 8 assessed as Liver stage (LS) activity by measuring radical cure mode by immunofluorescent staining analysis; type: toxicity, cell-based; conditions: rhesus monkey, read-out: Selectivity Index
Consider the following compounds and their measured selectivity ratio at 96 h readings.
Would you mind answering with just the numeric figure?

# example entries with known answers
O=c1c2c([nH]c3cc(Oc4ccc(OC(F)(F)F)cc4)c(F)cc13)CCCC2 : 1.29
O=c1c2ccc(OCc3cccc(OC(F)(F)F)c3)cc2[nH]c2cc(Cl)cc(F)c12 : 5.34

Next compound, please.
Briefly, selectivity ratio at 96 h measured for O=c1c2ccc(Oc3ccc(OC(F)(F)F)cc3)cc2[nH]c2ccc(F)c(Cl)c12 : 2.57

###

test: Toxicity in CF1 mouse infected with asexual blood-stage (ABS) Plasmodium yoelii MRA-428 assessed as hyperactivity at 0.3 to 30 mg/kg, po treated 24 hrs post infection measured after 4 days; type: organism-based; conditions: in vivo, 96 h, dose 0.3-30 mg/kg, time 4 day
outcome-measure: Activity

CCCN(CCC)CCNc1ccc2c(=O)c3c([nH]c2c1)CCCC3 : Non-toxic
O=c1c2c([nH]c3c(Oc4ccc(OC(F)(F)F)cc4)cccc13)CCCC2 : Non-toxic
O=c1c2c([nH]c3cc(Oc4cccc(OC(F)(F)F)c4)ccc13)CCCC2 : Non-toxic

###

experiment: Half life in male ICR-CD1 mouse liver at 40 mg/kg, po; assay type: ADME, organism-based
outcome-measure: half-life
Number first, unit second: that is the form wanted.

O=c1c2c([nH]c3cc(Oc4ccc(OC(F)(F)F)cc4)ccc13)CCCC2 : 2.84 h

Now look at this entry.
Recorded half-life (molecule O=c1c2c([nH]c3cc(Oc4ccc(OC(F)(F)F)cc4)c(F)cc13)CCCC2 ): 4.3 h

###

assay: Selectivity index, ratio of CC50 for Macaca mulatta hepatocytes to IC50 for antiplasmodial activity against schizont Plasmodium cynomolgi B strain infected in Macaca mulatta hepatocytes incubated with sporozoite containing salivary gland homogenate obtained from dissected Anopheles dirus mosquitoes (infected with Plasmodium cynomolgi B strain) treatment started on day 4 post infection and continued daily for 4 days into fresh changed media until day 8 assessed as Liver stage (LS) activity by measuring radical cure mode by immunofluorescent staining analysis; assay type: toxicity, cell-based; details: rhesus monkey, read-out: Selectivity Index
outcome-measure: selectivity ratio at 96 h

Before answering, review these 2 worked examples.
O=c1c2c([nH]c3c(Oc4ccc(OC(F)(F)F)cc4)cccc13)CCCC2 : > 1.12
O=c1c2ccc(OC3CCNCC3)cc2[nH]c2cc(F)cc(Cl)c12 : > 1.45

Value of measured selectivity ratio at 96 h for the entry CN1CCC(Oc2ccc3c(=O)c4c(F)cc(Cl)cc4[nH]c3c2)CC1 : > 2.02

###

test system: Hepatocyte; test: Cytotoxicity against Macaca mulatta hepatocytes assessed as cell viability measured after 48 hrs by MTT assay; format: toxicity, cell-based; conditions: rhesus monkey, 48 h
outcome-measure: CC50

# count of solved cases: 2
O=c1c2c([nH]c3cc(OC(F)(F)F)ccc13)CCCC2 : > 20 µM
O=c1c2cc(Oc3ccc(OC(F)(F)F)cc3)ccc2[nH]c2cc(Cl)cc(F)c12 : > 20 µM

# next molecule below
Briefly, CC50 measured for O=c1c2ccc(OCc3cccc(C(F)(F)F)c3)cc2[nH]c2ccc(Cl)c(F)c12 : > 20 µM

###

conditions: mouse, microsomes, 1 h
The reader will find reported CLH values listed item by item below.

Field: example entries. Status: answers known.
CCCN(CCC)CCNc1ccc2c(=O)c3c([nH]c2c1)CCCC3 : > 500 µL/min/mg
CCN(CC)CCCOc1ccc2c(=O)c3c([nH]c2c1)CCCC3 : > 500 µL/min/mg

Next up:
# CLH of COc1ccc(Oc2ccc3c(=O)c4c(F)cc(Cl)cc4[nH]c3c2)cc1 = < 3.125 µL/min/mg

###

conditions: mouse, microsomes, 1 h
outcome-measure: CLH

Worked cases, answers included:
O=c1c2ccc(Oc3ccc(OC(F)(F)F)cc3)cc2[nH]c2ccc(Cl)c(F)c12 : < 3.125 µL/min/mg
CCCCN(CCCC)CCCOc1ccc2c(=O)c3c([nH]c2c1)CCCC3 : > 500 µL/min/mg
O=c1c2ccc(Oc3ccccc3OC(F)(F)F)cc2[nH]c2cc(Cl)cc(F)c12 : 72.3 µL/min/mg

CLH in this record for O=c1c2cccc(Oc3ccc(OC(F)(F)F)cc3)c2[nH]c2cc(Cl)cc(F)c12 : 25.5 µL/min/mg

# CLH of O=c1c2cc(Oc3ccc(OC(F)(F)F)cc3)ccc2[nH]c2cc(Cl)cc(F)c12 = 45.4 µL/min/mg

# CLH (compound: O=c1c2c([nH]c3c(Oc4ccc(OC(F)(F)F)cc4)cccc13)CCCC2 ) is 6.85 µL/min/mg

###

Collected selectivity ratio at 96 h values appear next to each entry.
assay: Selectivity index, ratio of CC50 for Macaca mulatta hepatocytes to IC50 for antiplasmodial activity against hypnozoite Plasmodium cynomolgi B strain infected in Macaca mulatta hepatocytes incubated with sporozoite containing salivary gland homogenate obtained from dissected Anopheles dirus mosquitoes (infected with Plasmodium cynomolgi B strain) treatment started on day 4 post infection and continued daily for 4 days into fresh changed media until day 8 assessed as Liver stage (LS) activity by measuring prophylactic mode by immunofluorescent staining analysis; format: toxicity, cell-based; details: rhesus monkey, read-out: Selectivity Index

Field: example entries. Status: answers known.
O=c1c2cccc(Oc3ccc(OC(F)(F)F)cc3)c2[nH]c2cc(Cl)cc(F)c12 : > 1.47
O=c1c2c([nH]c3ccc(Oc4ccc(OC(F)(F)F)cc4)cc13)CCCC2 : > 5.25

Per the record, O=c1c2ccc(OCc3cccc(OC(F)(F)F)c3)cc2[nH]c2ccc(Cl)c(F)c12 has selectivity ratio at 96 h of > 83.3

Lab note: O=c1c2ccc(Oc3ccc(OC(F)(F)F)cc3)cc2[nH]c2cc(Cl)c(F)cc12 gave selectivity ratio at 96 h of > 15.5

Short answer for O=c1c2cc(Oc3ccc(OC(F)(F)F)cc3)ccc2[nH]c2cc(Cl)cc(F)c12 : selectivity ratio at 96 h was > 60.6

What the record says about CN1CCC(Oc2ccc3c(=O)c4c(F)cc(Cl)cc4[nH]c3c2)CC1 : selectivity ratio at 96 h is > 3.51

Kindly note the recorded selectivity ratio at 96 h for O=c1c2ccc(Oc3cccc(OC(F)(F)F)c3)cc2[nH]c2cc(F)c(Cl)cc12 , which is > 23

Entry under test: O=c1c2ccc(Oc3cccc(C(F)(F)F)c3)cc2[nH]c2cc(F)c(Cl)cc12 . Its selectivity ratio at 96 h was > 14.4

Note to self: selectivity ratio at 96 h recorded for O=c1c2ccc(OCc3cccc(C(F)(F)F)c3)cc2[nH]c2ccc(Cl)c(F)c12 was > 50

Per the records, this compound ( O=c1c2ccc(Oc3ccc(OC(F)(F)F)cc3)cc2[nH]c2cc(F)c(Cl)cc12 ) has selectivity ratio at 96 h equal to > 48.8

###

We begin with a simple list: items and their reported selectivity ratio at 96 h.
assay: Selectivity index, ratio of CC50 for Macaca mulatta hepatocytes to IC50 for antiplasmodial activity against schizont Plasmodium cynomolgi B strain infected in Macaca mulatta hepatocytes incubated with sporozoite containing salivary gland homogenate obtained from dissected Anopheles dirus mosquitoes (infected with Plasmodium cynomolgi B strain) treatment started on day 4 post infection and continued daily for 4 days into fresh changed media until day 8 assessed as Liver stage (LS) activity by measuring radical cure mode by immunofluorescent staining analysis; assay type: toxicity, cell-based; settings: rhesus monkey, read-out: Selectivity Index

Consider O=c1c2ccc(OCc3cccc(C(F)(F)F)c3)cc2[nH]c2ccc(Cl)c(F)c12 . Its measured selectivity ratio at 96 h is > 13.1

Value of selectivity ratio at 96 h reported for the compound O=c1c2ccc(OCc3cccc(OC(F)(F)F)c3)cc2[nH]c2ccc(Cl)c(F)c12 is > 6.13

GET /value?item= CCCN(CCC)CCCOc1ccc2c(=O)c3c([nH]c2c1)CCCC3 &field=selectivity ratio at 96 h returns > 1.43
